System: MDA-MB-453
methodDescription: normalised viability (% of control), CellTiter-Blue; higher = more viable cells (about 100 = DMSO control)
measurementParameters: incubation time: 72 h
Labelling: normalised viability reported below 90% becomes Condition met; at or above becomes Condition not met.

[[record]]
compound = "CC1=C2C[C@H]3[C@@H](CC=C4C[C@@H](O)CC[C@@]43C)[C@@H]2CC[C@]12O[C@@H]1C[C@H](C)CN[C@H]1[C@H]2C [Cyclopamine] (10000 nM)"
answerlabel = "Condition not met"

[[record]]
compound = "Cn1cnc2c(F)c(Nc3ccc(Br)cc3Cl)c(C(=O)NOCCO)cc21 [Selumetinib] (10000 nM)"
answerlabel = "Condition met"

[[record]]
compound = "Oc1ncnc2[nH]ncc12 [Allopurinol] (10000 nM)"
answerlabel = "Condition not met"

[[record]]
compound = "COc1cc(F)c(F)c(Nc2ccc(I)cc2F)c1NS(=O)(=O)C1(C[C@H](O)CO)CC1 [RDEA119] (10000 nM)"
answerlabel = "Condition met"

[[record]]
compound = "O=P(O)(O)C(O)(Cn1ccnc1)P(=O)(O)O [Zoledronic acid] (10000 nM)"
answerlabel = "Condition met"


* * *

Test system: BT-549
methodDescription: normalised viability (% of control), CellTiter-Blue; higher = more viable cells (100 = DMSO, 0 = benzethonium chloride kill control)
measurementParameters: incubation time: 72 h
quantityName: normalised viability

[[record]]
molecule = "CC(C)(C)c1cnc(CSc2cnc(NC(=O)C3CCNCC3)s2)o1 [SNS-032] (1 nM)"
recordedmeasurement = "113%"

[[record]]
molecule = "Cn1cnc2c(F)c(Nc3ccc(Br)cc3Cl)c(C(=O)NOCCO)cc21 [Selumetinib] (1 nM)"
recordedmeasurement = "102%"

[[record]]
molecule = "Nc1ncn([C@@H]2O[C@H](CO)[C@@H](O)[C@H]2O)c(=O)n1 [Azacitidine] (1 nM)"
recordedmeasurement = "93.7%"

[[record]]
molecule = "COc1cc(F)c(F)c(Nc2ccc(I)cc2F)c1NS(=O)(=O)C1(C[C@H](O)CO)CC1 [RDEA119] (1 nM)"
recordedmeasurement = "97.3%"


* * *

System: MDA-MB-436
methodDescription: normalised response (% of control), CellTiter-Glo; higher = more viable cells (100 = DMSO, 0 = benzethonium chloride kill control)
measurementParameters: incubation time: 72 h
Values of normalised response greater than or equal to 90% map to 1.0; values below map to 0.0.

[[record]]
compound = "CC(=O)N(O)CCCCCNC(=O)CCC(=O)N(O)CCCCCNC(=O)CCC(=O)N(O)CCCCCN [Deferoxamine] (100 nM)"
targetortestsystem = "MDA-MB-436"
answerlabel = 1.0

[[record]]
compound = "Oc1ncnc2[nH]ncc12 [Allopurinol] (100 nM)"
targetortestsystem = "MDA-MB-436"
answerlabel = 1.0

[[record]]
compound = "CC(=O)O[C@@]12CO[C@@H]1C[C@H](O)[C@@]1(C)C(=O)[C@H](O)C3=C(C)[C@@H](OC(=O)[C@H](O)[C@@H](NC(=O)OC(C)(C)C)c4ccccc4)C[C@@](O)([C@@H](OC(=O)c4ccccc4)[C@H]21)C3(C)C [Docetaxel] (10 nM)"
targetortestsystem = "MDA-MB-436"
answerlabel = 0.0

[[record]]
compound = "CC(C)(C)c1cnc(CSc2cnc(NC(=O)C3CCNCC3)s2)o1 [SNS-032] (100 nM)"
targetortestsystem = "MDA-MB-436"
answerlabel = 0.0

[[record]]
compound = "Nc1nc2[nH]cnc2c(=S)[nH]1 [Thioguanine] (100 nM)"
targetortestsystem = "MDA-MB-436"
answerlabel = 1.0

[[record]]
compound = "CC1=C2C[C@H]3[C@@H](CC=C4C[C@@H](O)CC[C@@]43C)[C@@H]2CC[C@]12O[C@@H]1C[C@H](C)CN[C@H]1[C@H]2C [Cyclopamine] (100 nM)"
targetortestsystem = "MDA-MB-436"
answerlabel = 1.0


Attribution: the supplement of paper PMC4862054
